- study.system: UniProt P02702
- Sequence (P02702 20-234): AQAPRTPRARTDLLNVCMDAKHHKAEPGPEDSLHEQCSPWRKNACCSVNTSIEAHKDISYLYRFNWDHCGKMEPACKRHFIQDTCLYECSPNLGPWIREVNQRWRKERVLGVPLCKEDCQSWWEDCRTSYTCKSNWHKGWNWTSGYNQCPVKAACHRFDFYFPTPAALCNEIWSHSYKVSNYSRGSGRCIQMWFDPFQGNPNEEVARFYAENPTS
experimental.readout: Kd (µM)
Give the number; µM is assumed, so skip it.

[Q] What value of Kd on UniProt P02702 does CN(Cc1cnc2nc(N)nc(N)c2n1)c1ccc(C(=O)N[C@@H](CCC(=O)O)C(=O)O)cc1 [MTX, methotrexate] have?
[A] 24
